# key: entry, value: IC50
# Tested on: Plasmodium falciparum
# protocol details: Antimalarial activity against Plasmodium falciparum D6
# Format: functional, organism-based

// below: answered compounds
compound: C[C@@H]1CC[C@H]2[C@@H](C)C(CCCO)O[C@@H]3O[C@]4(C)CC[C@@H]1[C@]32OO4 (some centres undefined)
test system: Plasmodium falciparum
IC50: 0.23 ng/mL
//
compound: C[C@@H]1CC[C@H]2[C@](C)(Br)[C@@H](Nc3nccs3)O[C@@H]3O[C@]4(C)CC[C@@H]1[C@]32OO4
test system: Plasmodium falciparum
IC50: 0.91 ng/mL
//
compound: COC(=O)CC[C@@H](OC1O[C@@H]2O[C@]3(C)CC[C@H]4[C@H](C)CC[C@@H]([C@H]1C)[C@@]24OO3)c1ccc(F)cc1 (some centres undefined)
test system: Plasmodium falciparum
IC50: 0.43 ng/mL

Can you share its IC50? I mean this compound: `C[C@@H]1CC[C@H]2[C@](C)(Br)[C@@H](Nc3ccccn3)O[C@@H]3O[C@]4(C)CC[C@@H]1[C@]32OO4`
7.72 ng/mL

Can you share its IC50? I mean this compound: `CCC[C@H]1O[C@@H]2O[C@]3(C)CC[C@H]4[C@H](C)CC[C@@H]([C@H]1C)[C@@]24OO3`
0.41 ng/mL

Can you share its IC50? I mean this compound: COC(=O)CCC(OC1O[C@@H]2O[C@]3(C)CC[C@H]4[C@H](C)CC[C@@H]([C@H]1C)[C@@]24OO3)c1ccc(Cl)cc1 (some centres undefined)
0.391 ng/mL

Can you share its IC50? I mean this compound: `CC[C@H]1O[C@@H]2O[C@]3(C)CC[C@H]4[C@H](C)CC[C@@H]([C@H]1C)[C@@]24OO3`
1.09 ng/mL

Source of measurements: ChEMBL document CHEMBL4616581
